# Test system: C. neoformans ATCC 208821
# assay-explanation: Antifungal MIC assay (broth microdilution in YNB)
# Assay type: cell-based, Cryptococcus neoformans
# particulars: Cryptococcus neoformans, ATCC208821; range of MICs, n=8; 35 °C, 36 h, visual; read-out: MIC C. neoformans ATCC 208821
# Protocol: Yeast strains: Candida albicans (ATCC 90028, NCCLS 11), Cryptococcus neoformans (ATCC 208821, H99 type strain), Candida tropicalis (ATCC 750, type strain), Candida glabrata (ATCC 90030, NCCLS 84) and Cryptococcus deuterogattii (ATCC 32609, type strain) were obtained from the American Type Culture Collection (ATCC). […] Growth inhibition of all strains was determined visually where the MIC was recorded as the lowest compound concentration with no visible growth. […]
recorded-metric: MIC

>  <molecule>
CC(/C=C(\O)C(F)(F)F)=N\CC/N=C(C)/C=C(\O)C(F)(F)F

>  <recorded-metric>
MIC

>  <recorded-measurement>
> 100 µM

$$$$
>  <molecule>
CC(=O)N1CCN(c2ccc(OCC3COC(Cn4ccnc4)(c4ccc(Cl)cc4Cl)O3)cc2)CC1 (stereo not drawn) [KCZ, Ketoconazole, reference compound]

>  <recorded-metric>
MIC

>  <recorded-measurement>
1.88 to 3.76 µM

$$$$
>  <molecule>
CC(=N\NC(N)=S)/C(C)=N/NC(N)=S

>  <recorded-metric>
MIC

>  <recorded-measurement>
> 100 µM

$$$$
